# experimentSummary: A CellTox Green Cytotoxicity Assay to monitor cytotoxicity in HepG2 cells - 32 hour (AID 1224883); note: nearly all actives have a fitted effect of over 50% in size
# reportedConditions: CellTox Green fluorescence; series mostly up to 76.8 µM
Records with an inconclusive call do not appear. The source made the active and inactive calls. Calls come from the whole dose curve; as a rule, active = well fitted activation curve with a large enough effect in the repeat runs; inconclusive = weak or mixed curves; inactive = flat fitted curve, though single readings scatter.
Please answer using one outcome listed in active, inactive

Could you please tell me the result logged for COc1ccc(-c2ccc3cc(C(=O)O)ccc3c2)cc1C12CC3CC(CC(C3)C1)C2 in this assay? active

Could you please tell me the result logged for CN1CCN(CCC(=O)N2c3ccccc3Sc3ccc(C(F)(F)F)cc32)CC1 in this assay? active

Could you please tell me the result logged for Nc1ccc(N)c2ccccc12 in this assay? active

Could you please tell me the result logged for C[n+]1cc2c3c(ccc2c2ccc4cc5c(cc4c21)OCO5)OCO3 in this assay? active

Could you please tell me the result logged for Clc1ccc2n[nH]nc2c1 in this assay? inactive

Could you please tell me the result logged for CCCC(c1cc(C(C)(C)C)c(O)cc1C)c1cc(C(C)(C)C)c(O)cc1C in this assay? active

Each recorded value in this set is attributed to PubChem BioAssay (Tox21).
